Property: one-hybrid fitness for binding NBS DNA; scope: individual variants
B1: Caulobacter ParB omega fusion; a variant is named by its letters at X, in order, B8GW30 (parent)
chain: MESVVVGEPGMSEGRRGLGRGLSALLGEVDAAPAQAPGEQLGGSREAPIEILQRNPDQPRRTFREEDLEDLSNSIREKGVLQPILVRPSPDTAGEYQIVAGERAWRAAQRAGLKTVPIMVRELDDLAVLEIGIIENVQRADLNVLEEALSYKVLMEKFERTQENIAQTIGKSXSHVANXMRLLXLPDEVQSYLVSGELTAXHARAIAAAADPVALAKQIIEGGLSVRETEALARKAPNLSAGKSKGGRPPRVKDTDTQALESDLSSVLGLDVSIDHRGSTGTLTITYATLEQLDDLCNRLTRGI

variants of: B1; experiment: one-hybrid fitness for binding NBS DNA (the Noc-binding site; scaled: cognate 1, non-cognate 0); higher = stronger binding; details: with NBS DNA site
Whole data set: some 81,000 sequences, median “one-hybrid fitness for binding NBS DNA” near -0.1, cut for the highest 2% near 0.36. The sample as a whole holds a higher share of the highest values than the screen did.

>  <Mutation Annotation>
QWHR

>  <one-hybrid fitness for binding NBS DNA>
0.288

$$$$
>  <Mutation Annotation>
YVHE

>  <one-hybrid fitness for binding NBS DNA>
≤ 0.2

$$$$
>  <Mutation Annotation>
QSHD

>  <one-hybrid fitness for binding NBS DNA>
≤ 0.2

$$$$
>  <Mutation Annotation>
QIHR

>  <one-hybrid fitness for binding NBS DNA>
0.493

$$$$
>  <Mutation Annotation>
SLHR

>  <one-hybrid fitness for binding NBS DNA>
≤ 0.2

$$$$
>  <Mutation Annotation>
QIHC

>  <one-hybrid fitness for binding NBS DNA>
≤ 0.2

$$$$
>  <Mutation Annotation>
PCEF

>  <one-hybrid fitness for binding NBS DNA>
≤ 0.2

$$$$
>  <Mutation Annotation>
QTHR

>  <one-hybrid fitness for binding NBS DNA>
0.877

$$$$

Q: // lookup one-hybrid fitness for binding NBS DNA for QSHR
A: 0.578

Q: Same thing, different variant: YGDI
A: ≤ 0.2

Q: Item: MADF
A: ≤ 0.2
